protocol: Solubility of BHET in different solvents (shaken 2 hours, analyzed by HPLC)
Format: physicochemical
setup.conditions: thermodynamic from solid; solvent: water
readout.type: solubility thermodynamic at 2 h (µg/mL)
Just the number in µg/mL, nothing appended.

Lab book: solubility thermodynamic at 2 h of O=C(OCCO)c1ccc(C(=O)OCCO)cc1 [BHET, bis(2-hydroxyethyl) terephthalate] noted as 5000
